Source: patent US20230357429A1

measured-target: T1, Peptide-41 (cysteine pairing not given here; also: biotinylated, site not given here)
T1 peptide: VDFCGLYHWPICYQVY
experimental-details: ELISA, Fab on captured biotin-peptide
Where no end group is shown, it is not given here.
metric: log10(EC50) (log10 of the value in nM)
Please interpret these as log10 of EC50 where EC50 is in nM.

Here are 3 binders together with their reported answers.
binder | quantitative-readout
TBD-6 (LC I93A) (Fab, V domains shown, Fab; also called LC I93A mutant) VH: QVQLQQSGSELKKPGASVKVSCKASGYTFTNYGMNWVKQAPGQGLKWMGWINTYTGEPTYTDDFKGRFAFSLDTSVSTAYLQISSLKADDTAVYFCARGGFGSSYWYFDVWGQGSLVTVSS VL: DIQLTQSPSSLSASVGDRVSITCKASQDVSIAVAWYQQKPGKAPKLLIYSASYRYTGVPDRFSGSGSGTDFTLTISSLQPEDFAVYYCQQHYATPLTFGAGTKVEIKR | 1.61
TBD-21 (HC F108A) (Fab, V domains shown, Fab; also called HC F108A mutant) VH: QVQLQQSGSELKKPGASVKVSCKASGYTFTNYGMNWVKQAPGQGLKWMGWINTYTGEPTYTDDFKGRFAFSLDTSVSTAYLQISSLKADDTAVYFCARGGFGSSYWYADVWGQGSLVTVSS VL: DIQLTQSPSSLSASVGDRVSITCKASQDVSIAVAWYQQKPGKAPKLLIYSASYRYTGVPDRFSGSGSGTDFTLTISSLQPEDFAVYYCQQHYITPLTFGAGTKVEIKR | 1.67
TBD-22 (HC D109A) (Fab, V domains shown, Fab; also called HC D109A mutant) VH: QVQLQQSGSELKKPGASVKVSCKASGYTFTNYGMNWVKQAPGQGLKWMGWINTYTGEPTYTDDFKGRFAFSLDTSVSTAYLQISSLKADDTAVYFCARGGFGSSYWYFAVWGQGSLVTVSS VL: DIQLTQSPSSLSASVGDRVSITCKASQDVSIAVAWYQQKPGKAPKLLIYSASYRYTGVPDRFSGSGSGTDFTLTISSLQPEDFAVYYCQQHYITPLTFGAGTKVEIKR | 0.78

Please give log10(EC50) for each item listed below.
1. TBD-1 wt (Fab, V domains shown, Fab; the heavy chain entry is VH-CH1; also called wild-type anti-TROP2 Fab (hRS7); TROP2 Fab) VH: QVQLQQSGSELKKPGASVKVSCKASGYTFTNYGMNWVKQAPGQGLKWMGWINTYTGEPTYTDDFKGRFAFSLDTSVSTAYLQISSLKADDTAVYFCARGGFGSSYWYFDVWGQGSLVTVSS VL: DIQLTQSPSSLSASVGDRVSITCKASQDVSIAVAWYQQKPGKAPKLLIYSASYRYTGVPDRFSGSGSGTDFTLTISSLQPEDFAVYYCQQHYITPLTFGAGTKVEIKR
2. TBD-17 (HC S104A) (Fab, V domains shown, Fab; also called HC S104A mutant) VH: QVQLQQSGSELKKPGASVKVSCKASGYTFTNYGMNWVKQAPGQGLKWMGWINTYTGEPTYTDDFKGRFAFSLDTSVSTAYLQISSLKADDTAVYFCARGGFGSAYWYFDVWGQGSLVTVSS VL: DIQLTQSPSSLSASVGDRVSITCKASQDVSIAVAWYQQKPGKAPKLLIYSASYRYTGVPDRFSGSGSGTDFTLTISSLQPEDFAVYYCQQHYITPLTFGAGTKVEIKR
3. TBD-11 (HC R98A) (Fab, V domains shown, Fab; also called HC R98A mutant) VH: QVQLQQSGSELKKPGASVKVSCKASGYTFTNYGMNWVKQAPGQGLKWMGWINTYTGEPTYTDDFKGRFAFSLDTSVSTAYLQISSLKADDTAVYFCAAGGFGSSYWYFDVWGQGSLVTVSS VL: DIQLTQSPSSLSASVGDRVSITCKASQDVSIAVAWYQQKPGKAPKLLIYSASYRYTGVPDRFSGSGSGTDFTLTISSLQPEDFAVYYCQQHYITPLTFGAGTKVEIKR

Reply:
1. 2.01
2. 1.46
3. 2.20
